Reported MIC is given for each of the following substances.
# System: Enterobacter sp.
# Protocol summary: Antibacterial activity against Enterobacter sakazakii ATCC 29544 assessed as transparent well by visual inspection after 18 hrs by CLSI based-broth microdilution method
# Format: functional
Answer format: numeric, µM implied, no suffix.

Below, each entry is followed by its recorded MIC result.
| Substance | MIC [µM] |
| --- | --- |
| H-PFRLRLHL-OH | 32 |
| H-PWRLRLHL-OH | 8 |
| H-PFRLSLRL-OH | 16 |
| H-PFRLRLRL-OH | 32 |
| H-PFRLSLHL-OH | 32 |
| H-PWRLSLRL-OH | 8 |

Now look at this entry.
Query block: Which MIC is reported with Enterobacter sp. for this entry: H-PFKLKLHL-OH ?
Result block: 32

###

# System: Enterobacter sp.
# Protocol summary: Antibacterial activity against Enterobacter sakazakii ATCC 29544 assessed as transparent well by visual inspection after 18 hrs by CLSI based-broth microdilution method
# Assay type: functional
Reported metric: MIC (µM)
Answer format: numeric, µM implied, no suffix.

Query block: So what does the record say about MIC for H-PFKLSLKL-OH ?
Result block: 32

Query block: So what does the record say about MIC for H-PWKLKLKL-OH ?
Result block: 16

###

Reported MIC is given for each of the following substances.
# Test system: Enterobacter sp.
# Protocol summary: Antibacterial activity against Enterobacter sakazakii ATCC 29544 assessed as transparent well by visual inspection after 18 hrs by CLSI based-broth microdilution method
# Assay type: functional
Answer format: numeric, µM implied, no suffix.

| Substance | Reported metric | Data value |
| --- | --- | --- |
| H-PFKLSLHL-OH | MIC | 64 |
| H-PWKLKLHL-OH | MIC | 16 |
| H-PWRLRLRL-OH | MIC | 8 |
| H-PFKLKLKL-OH | MIC | 32 |
| H-PWRLSLHL-OH | MIC | 16 |
| H-PWKLSLHL-OH | MIC | 16 |

Now look at this entry.
Query block: Which MIC is reported with Enterobacter sp. for this entry: H-PWKLSLKL-OH ?
Result block: 8
